Cited source: patent US10137212B2

Experiment: complexation of ligands with ^89Zr, yield by ITLC-SG
Format: physicochemical
Protocol conditions: 50° C., 30 min; 7.5 nmol ligand, pH 7
Endpoint label: complexation yield of ^89Zr

>>> print(df.to_string())
                                   compound               endpoint_label  assay_value
0  O=C1CCCCCCCN(O)C(=O)CCCCCCCN(O)C(=O)CCCCCCCN(O)C(=O)CCCCCCCN1O [Ligand C7]  complexation yield of ^89Zr         >99%
1  O=C1CCCCCCN(O)C(=O)CCCCCCN(O)C(=O)CCCCCCN(O)C(=O)CCCCCCN1O [Ligand C6]  complexation yield of ^89Zr          92%

Now look at this entry.
(Q) May I ask what complexation yield of ^89Zr has been recorded for CCCCCCC(=O)N(O)CCCCCCCC(=O)N(O)CCCCCCCC(=O)N(O)CCCCCCCC(=O)N(O)CCC [Ligand L7] ?
(A) >99%

---

Experiment: complexation of ligands with ^89Zr, yield by ITLC-SG
Format: physicochemical
Protocol conditions: 80° C. (time not given); 7.5 nmol ligand, pH 7
Answer each item with its documented complexation yield of ^89Zr.
One number for each entry, in %.

>>> df
                            compound_string               endpoint_label  assay_value
0  O=C1CCCCCN(O)C(=O)CCCCCN(O)C(=O)CCCCCN(O)C(=O)CCCCCN1O  complexation yield of ^89Zr           29

(Q) // query complexation yield of ^89Zr value for entry O=C1CCCCCCN(O)C(=O)CCCCCCN(O)C(=O)CCCCCCN(O)C(=O)CCCCCCN1O
(A) 92

---

Experiment: in vitro stability of ^89Zr complexes in 0.1 M sodium phosphate buffer pH 6.5
Type: physicochemical
Protocol conditions: 7 Days; 0.1 M sodium phosphate buffer pH 6.5, 10% DMSO, 37° C.
# strict inequality: Fraction of intact complex < 80% yields Y, everything else yields N

Past entries and their recorded results:
In [3]: df
Out[3]:
                                   compound  classification
0  CCCCCC(=O)N(O)CCCCCCC(=O)N(O)CCCCCCC(=O)N(O)CCCCCCC(=O)N(O)CCC               N
1  CCCCC(=O)N(O)CCCCCC(=O)N(O)CCCCCC(=O)N(O)CCCCCC(=O)N(O)CCC               Y
2  CC(=O)N(O)CCCCCNC(=O)CCC(=O)N(O)CCCCCNC(=O)CCC(=O)N(O)CCCCCN [DFB, desferrioxamine B, reference compound]               N
3  O=C1CCCCCN(O)C(=O)CCCCCN(O)C(=O)CCCCCN(O)C(=O)CCCCCN1O               Y
4  O=C1CCCCCCCN(O)C(=O)CCCCCCCN(O)C(=O)CCCCCCCN(O)C(=O)CCCCCCCN1O               N
5  O=C1CCCCCCN(O)C(=O)CCCCCCN(O)C(=O)CCCCCCN(O)C(=O)CCCCCCN1O               Y

Could you now consider this next compound?
(Q) Is Fraction of intact complex strictly under 80% for the entry CCCCCCC(=O)N(O)CCCCCCCC(=O)N(O)CCCCCCCC(=O)N(O)CCCCCCCC(=O)N(O)CCC ?
(A) N
